ASSAY SYSTEM: Angiotensin converting enzyme (from rabbit lung) (Oryctolagus cuniculus)
Construct: Angiotensin converting enzyme (from rabbit lung); purchased Sigma-Aldrich Co. (St. Louis, MO, USA); host or cells: rabbit lung (tissue-derived)
Sequence (P12822 34-1310): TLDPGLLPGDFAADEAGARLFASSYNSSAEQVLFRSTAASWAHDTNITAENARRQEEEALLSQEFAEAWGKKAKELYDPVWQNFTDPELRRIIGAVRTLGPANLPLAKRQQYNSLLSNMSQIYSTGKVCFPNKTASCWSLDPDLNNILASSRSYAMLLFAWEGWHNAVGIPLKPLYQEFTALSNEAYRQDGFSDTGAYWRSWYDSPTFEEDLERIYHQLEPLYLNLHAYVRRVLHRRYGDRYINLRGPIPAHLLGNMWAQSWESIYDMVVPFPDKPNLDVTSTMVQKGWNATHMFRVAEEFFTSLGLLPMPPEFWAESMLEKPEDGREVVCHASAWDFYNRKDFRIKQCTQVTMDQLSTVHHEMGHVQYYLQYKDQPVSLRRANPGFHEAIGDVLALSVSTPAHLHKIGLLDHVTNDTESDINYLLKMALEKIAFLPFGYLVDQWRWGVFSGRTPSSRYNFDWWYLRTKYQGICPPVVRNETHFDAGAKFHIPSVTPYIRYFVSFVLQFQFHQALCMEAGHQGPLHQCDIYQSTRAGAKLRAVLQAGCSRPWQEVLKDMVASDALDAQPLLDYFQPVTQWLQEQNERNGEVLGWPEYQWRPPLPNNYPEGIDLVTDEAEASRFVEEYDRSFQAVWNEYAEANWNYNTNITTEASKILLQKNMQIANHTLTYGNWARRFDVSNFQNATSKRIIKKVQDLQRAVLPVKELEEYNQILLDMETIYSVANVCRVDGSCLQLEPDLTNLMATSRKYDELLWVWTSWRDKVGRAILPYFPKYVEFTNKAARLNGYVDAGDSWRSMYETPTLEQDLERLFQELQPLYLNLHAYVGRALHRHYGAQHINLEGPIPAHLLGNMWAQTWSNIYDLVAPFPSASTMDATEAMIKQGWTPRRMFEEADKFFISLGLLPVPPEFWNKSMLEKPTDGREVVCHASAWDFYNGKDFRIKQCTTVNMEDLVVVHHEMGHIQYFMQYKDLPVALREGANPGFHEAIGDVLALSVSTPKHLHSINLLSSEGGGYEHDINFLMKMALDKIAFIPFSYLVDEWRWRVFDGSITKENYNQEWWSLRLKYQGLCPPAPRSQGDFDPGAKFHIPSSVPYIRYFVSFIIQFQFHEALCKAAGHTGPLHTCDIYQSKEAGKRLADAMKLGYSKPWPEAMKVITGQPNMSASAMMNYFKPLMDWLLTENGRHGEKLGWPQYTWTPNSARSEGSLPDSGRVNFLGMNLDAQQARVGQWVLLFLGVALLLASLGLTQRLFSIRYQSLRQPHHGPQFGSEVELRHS
ASSAY NOTES: ACE-inhibitory activity, hippuric acid liberated from Hip-His-Leu (Cushman and Cheung, modified)
Type: biochemical
SETTINGS: synthetic peptides, purity 80%, sodium borate buffer pH 8.3, Hip-His-Leu 7.6 mM, NaCl 608 mM, pre-incubation 5 min, incubation 30 min, 37°C, 228 nm
pIC50: −log10 of the molar value. No end group written: not given here.
MEASUREMENT TYPE: pIC50

{"columns": ["ITEM SEQUENCE", "ASSAY SYSTEM", "RECORDED NUMBER"],
 "data": [
  ["EAPLNPKANR [EAPLNPKANR]", "Angiotensin converting enzyme (from rabbit lung) (Oryctolagus cuniculus)", 4.35]
]}
